probe binding, % of diluent control values for the binders below.
Biological target: T1, human ceruloplasmin (human, UniProt P00450 20-1065)
T1 construct: also called CP; purified CP
T1 sequence: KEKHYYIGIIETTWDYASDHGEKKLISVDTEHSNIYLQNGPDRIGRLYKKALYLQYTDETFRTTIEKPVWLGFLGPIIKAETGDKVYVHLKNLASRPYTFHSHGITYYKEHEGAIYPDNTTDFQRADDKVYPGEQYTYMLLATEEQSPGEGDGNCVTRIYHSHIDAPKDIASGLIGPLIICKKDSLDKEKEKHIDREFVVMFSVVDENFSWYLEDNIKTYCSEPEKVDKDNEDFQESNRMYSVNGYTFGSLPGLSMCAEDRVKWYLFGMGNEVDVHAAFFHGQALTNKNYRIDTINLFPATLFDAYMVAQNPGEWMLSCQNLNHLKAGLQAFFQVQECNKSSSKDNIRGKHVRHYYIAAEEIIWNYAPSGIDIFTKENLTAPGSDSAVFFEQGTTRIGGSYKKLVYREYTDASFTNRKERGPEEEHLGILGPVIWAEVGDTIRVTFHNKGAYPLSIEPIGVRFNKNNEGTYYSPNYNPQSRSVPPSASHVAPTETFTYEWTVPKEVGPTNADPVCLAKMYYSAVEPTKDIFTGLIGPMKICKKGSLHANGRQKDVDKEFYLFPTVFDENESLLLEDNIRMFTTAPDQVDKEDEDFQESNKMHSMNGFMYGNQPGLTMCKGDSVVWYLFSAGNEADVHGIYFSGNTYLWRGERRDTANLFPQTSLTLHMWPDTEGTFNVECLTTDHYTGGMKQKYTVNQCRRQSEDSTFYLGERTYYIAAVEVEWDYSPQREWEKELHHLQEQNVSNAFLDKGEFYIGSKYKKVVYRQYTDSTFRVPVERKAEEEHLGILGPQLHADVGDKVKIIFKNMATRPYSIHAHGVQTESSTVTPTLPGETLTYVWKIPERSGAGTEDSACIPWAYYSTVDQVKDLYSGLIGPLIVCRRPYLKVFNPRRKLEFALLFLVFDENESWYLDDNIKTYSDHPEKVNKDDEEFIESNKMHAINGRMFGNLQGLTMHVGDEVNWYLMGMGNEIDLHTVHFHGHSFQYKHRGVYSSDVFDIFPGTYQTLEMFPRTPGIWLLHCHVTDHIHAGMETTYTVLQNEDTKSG
Test: competition ELISA on coated CP, biotinylated probe; competitor: mAb D
Please respond with the number in % and leave the unit unwritten.

Incoming: Quick one: probe binding, % of diluent control of anti-CP mAb G (antibody, V domains shown, Recombinant full-length rabbit IgG from HEK-293; also called mAb3) VH: QSLEESGGRLVTPGTLLTLTCTVSGFSLSSNAMSWVRQAPGEGLEWIGTISSRGSTYYANWAKGRFTISKTSTTVDLKITSPTTEDTATYFCARSSLAGYEPYYFKLWGQGTLVTVSS VL: DVVMTQTASPVSAAVGGTVTIKCQASESISSYLAWYQQKPGQPPKLLIYGASDLASGVPSRFKGSGSGTEFTLTISDLECADAATYYCQSYYGLSRNGYGNVFGGGTEVVVKG ?
Outgoing: 103

Note: attention shifts to another entry.
Incoming: Quick one: probe binding, % of diluent control of anti-CP mAb A (antibody, V domains shown, Recombinant full-length rabbit IgG from HEK-293; tested as conditioned medium, Protein A-purified and biotinylated) VH: QSLEESGGDLVKPGASLTLTCKASGFDLSRFYYMCWVRQAPGKGLEWIACIYAGRTGNTYYASWAKGRFTISKTSSTTVTLQMTSLTAADTATYFCARASGDFLAYTYAMDLWGPGTLVTVSS VL: AAVLTQTPASVSAAVGGTVTISCQASQSVDNNNYLAWYQQKPGQPPKLLIYEASKLASGVPSRFSGSGSGTQFTLTISDVQCDDATTYYCAGGYSSSADANAFGGGTEVVVKG ?
Outgoing: 113
